- target-or-test-system: human NAMPT (Homo sapiens)
- Sequence (P43490 whole entry): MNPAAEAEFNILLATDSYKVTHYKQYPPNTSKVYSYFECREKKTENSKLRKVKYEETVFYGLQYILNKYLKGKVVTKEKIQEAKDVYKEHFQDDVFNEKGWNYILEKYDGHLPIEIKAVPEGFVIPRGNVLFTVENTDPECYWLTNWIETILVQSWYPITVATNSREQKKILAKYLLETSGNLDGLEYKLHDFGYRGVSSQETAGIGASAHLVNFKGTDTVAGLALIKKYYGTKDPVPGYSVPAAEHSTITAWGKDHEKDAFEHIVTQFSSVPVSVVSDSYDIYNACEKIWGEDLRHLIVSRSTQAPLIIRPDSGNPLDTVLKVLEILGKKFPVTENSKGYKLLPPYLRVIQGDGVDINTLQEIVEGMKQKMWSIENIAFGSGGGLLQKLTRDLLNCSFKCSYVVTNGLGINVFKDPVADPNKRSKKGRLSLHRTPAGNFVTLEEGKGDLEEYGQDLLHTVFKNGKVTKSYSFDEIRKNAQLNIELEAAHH
- protocol-summary: Human recombinant enzyme assay (NMN fluorescence biochemical assay, activation of NAMPT)
Reported EC50 values are given for each entry in this list.
observed-property: EC50 (µM)

>  <molecule>
COc1ccc(CNC(=O)NC2CC3(C2)CC(C(=O)NCCc2ccccc2)C3)cc1 (stereo not shown)

>  <unit-abbrev>
µM

>  <readout-value>
38.4

$$$$
>  <molecule>
COc1ccc(CNC(=O)NC2CC3(C2)CN(C(=O)Cc2ccccc2F)C3)cc1

>  <unit-abbrev>
µM

>  <readout-value>
43.7

$$$$
>  <molecule>
COc1ccc(CNC(=O)NC2CC3(C2)CN(S(=O)(=O)c2ccccc2Cl)C3)cc1

>  <unit-abbrev>
µM

>  <readout-value>
51.3

$$$$
>  <molecule>
CC(C)(O)CN1CCN(C(=O)[C@H]2C[C@]3(C[C@H](NC(=O)NCc4ccc(Cl)cc4)C3)C2)CC1 (single isomer, unassigned)

>  <unit-abbrev>
µM

>  <readout-value>
20.5

$$$$
